Catalogue of GI50 values
# Tested on: K562
# test.protocol: Cytotoxicity against human K562 cells assessed as growth inhibition after 48 hrs by SRB assay
# Format: functional
# stated.conditions: K562, 48 h
attribute.measured: GI50 (µM)

O=C1c2ccccc2C(=O)c2c1ccc1nc(SCCN3CCCC3)[nH]c21 1.7
CN(C)CCCSc1nc2ccc3c(c2[nH]1)C(=O)c1ccccc1C3=O 2.04
CCCSc1nc2ccc3c(c2[nH]1)C(=O)c1ccccc1C3=O 36.4
CCSc1nc2ccc3c(c2[nH]1)C(=O)c1ccccc1C3=O 13.5

* * *

# Tested on: SNB-75
# test.protocol: Cytotoxicity against human SNB75 cells assessed as growth inhibition after 48 hrs by SRB assay
# Assay type: functional
# stated.conditions: SNB-75, 48 h
// reported GI50 for each item listed
attribute.measured: GI50 (µM)

O=C1c2ccccc2C(=O)c2c1ccc1nc(SCCN3CCCC3)[nH]c21 12.3
CCCSc1nc2ccc3c(c2[nH]1)C(=O)c1ccccc1C3=O 2.64
CCSc1nc2ccc3c(c2[nH]1)C(=O)c1ccccc1C3=O 10.1

* * *

# Tested on: MCF7
# test.protocol: Cytotoxicity against human MCF7 cells assessed as growth inhibition after 48 hrs by SRB assay
# Format: functional
# stated.conditions: MCF7, 48 h
attribute.measured: TGI

CN(C)CCCSc1nc2ccc3c(c2[nH]1)C(=O)c1ccccc1C3=O 4.21 µM
CCSc1nc2ccc3c(c2[nH]1)C(=O)c1ccccc1C3=O > 100 µM
CCCSc1nc2ccc3c(c2[nH]1)C(=O)c1ccccc1C3=O > 100 µM
O=C1c2ccccc2C(=O)c2c1ccc1nc(SCCN3CCCC3)[nH]c21 7.52 µM

* * *

# System: SK-MEL-2
# test.protocol: Cytotoxicity against human SK-MEL-2 cells assessed as growth inhibition after 48 hrs by SRB assay
# Type: functional
# stated.conditions: SK-MEL-2, 48 h
attribute.measured: GI50 (µM)

CCCSc1nc2ccc3c(c2[nH]1)C(=O)c1ccccc1C3=O 15.9
CN(C)CCCSc1nc2ccc3c(c2[nH]1)C(=O)c1ccccc1C3=O 13.3
CCSc1nc2ccc3c(c2[nH]1)C(=O)c1ccccc1C3=O 5.1
O=C1c2ccccc2C(=O)c2c1ccc1nc(SCCN3CCCC3)[nH]c21 17.1

* * *

# system: Telomerase reverse transcriptase (Homo sapiens)
# test.protocol: Inhibition of human tert transcriptional activity assessed as SEAP activity at 10 uM after 24 hrs by SEAP reporter assay
# Parameters: scale not given: the % may be the effect or the level left
Please use 1 for Activity under 90% and -1 for everything else, ties included.

O=C1c2ccccc2C(=O)c2c1ccc1nc3n(c21)CCS3 1
O=C(Sc1nc2ccc3c(c2[nH]1)C(=O)c1ccccc1C3=O)c1cc(C(F)(F)F)ccc1C(F)(F)F -1
C#CCSc1nc2ccc3c(c2[nH]1)C(=O)c1ccccc1C3=O 1
O=C1c2ccccc2C(=O)c2c1ccc1nc(SCCN3CCOCC3)[nH]c21 -1
COC(=O)CCCSc1nc2ccc3c(c2[nH]1)C(=O)c1ccccc1C3=O 1
CCN(CC)C(=O)Sc1nc2ccc3c(c2[nH]1)C(=O)c1ccccc1C3=O -1
O=C1c2ccccc2C(=O)c2c1ccc1nc(SCCCCCBr)[nH]c21 1
O=C(CCc1ccccc1)Sc1nc2ccc3c(c2[nH]1)C(=O)c1ccccc1C3=O -1
CCCCSc1nc2ccc3c(c2[nH]1)C(=O)c1ccccc1C3=O -1

* * *

# system: Telomerase reverse transcriptase (Homo sapiens) (UniProt O14746)
# Sequence (O14746 whole entry): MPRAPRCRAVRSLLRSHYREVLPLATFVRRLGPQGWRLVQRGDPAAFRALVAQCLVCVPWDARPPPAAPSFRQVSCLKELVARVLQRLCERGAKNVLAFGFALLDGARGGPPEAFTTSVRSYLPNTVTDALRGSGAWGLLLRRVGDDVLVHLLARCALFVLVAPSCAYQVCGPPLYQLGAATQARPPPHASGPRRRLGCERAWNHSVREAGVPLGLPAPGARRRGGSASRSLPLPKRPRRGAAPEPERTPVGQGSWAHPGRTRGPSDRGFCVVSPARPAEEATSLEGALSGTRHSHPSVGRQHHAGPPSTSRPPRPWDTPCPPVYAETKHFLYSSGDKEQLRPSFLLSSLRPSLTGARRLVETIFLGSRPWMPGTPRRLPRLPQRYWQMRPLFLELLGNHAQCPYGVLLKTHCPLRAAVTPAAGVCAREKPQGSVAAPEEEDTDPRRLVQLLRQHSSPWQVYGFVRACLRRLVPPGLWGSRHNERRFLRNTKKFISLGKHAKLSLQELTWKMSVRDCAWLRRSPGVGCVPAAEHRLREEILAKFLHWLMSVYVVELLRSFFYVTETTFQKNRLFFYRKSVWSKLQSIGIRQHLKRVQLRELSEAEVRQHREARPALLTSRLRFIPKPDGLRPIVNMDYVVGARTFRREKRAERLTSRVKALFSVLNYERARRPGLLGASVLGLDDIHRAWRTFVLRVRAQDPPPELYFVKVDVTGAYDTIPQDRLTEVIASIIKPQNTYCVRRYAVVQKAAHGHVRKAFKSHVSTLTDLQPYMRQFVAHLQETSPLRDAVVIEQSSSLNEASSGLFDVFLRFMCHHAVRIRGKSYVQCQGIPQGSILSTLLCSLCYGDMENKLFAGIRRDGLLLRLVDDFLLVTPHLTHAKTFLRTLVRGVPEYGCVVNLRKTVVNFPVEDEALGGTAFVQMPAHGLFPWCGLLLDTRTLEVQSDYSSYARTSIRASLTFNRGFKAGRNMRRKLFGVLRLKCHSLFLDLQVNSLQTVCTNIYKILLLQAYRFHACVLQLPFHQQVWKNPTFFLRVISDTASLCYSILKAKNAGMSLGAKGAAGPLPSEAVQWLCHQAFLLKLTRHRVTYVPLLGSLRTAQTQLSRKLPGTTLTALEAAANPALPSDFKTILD
# test.protocol: Inhibition of human tert transcriptional activity assessed as SEAP activity at 10 uM after 24 hrs by SEAP reporter assay
# Set-up: scale not given: the % may be the effect or the level left
attribute.measured: Activity (%)

CN1CCN(C(=O)Sc2nc3ccc4c(c3[nH]2)C(=O)c2ccccc2C4=O)CC1 99
CCN(CC)C(=O)CCSc1nc2ccc3c(c2[nH]1)C(=O)c1ccccc1C3=O 98
O=C1c2ccccc2C(=O)c2c1ccc1[nH]c(=S)[nH]c21 100
O=C1c2ccccc2C(=O)c2c1ccc1nc(SCCC(=O)N3CCOCC3)[nH]c21 97
O=C1c2ccccc2C(=O)c2c1ccc1nc(SCCCCCl)[nH]c21 96
O=C1c2ccccc2C(=O)c2c1ccc1nc(SC(=O)N3CCCC3)[nH]c21 105
Nc1ccc2c(c1N)C(=O)c1ccccc1C2=O 77
CCCSc1nc2ccc3c(c2[nH]1)C(=O)c1ccccc1C3=O 94
O=C1c2ccccc2C(=O)c2c1ccc1nc(SC(=O)N3CCCCC3)[nH]c21 104
O=C1c2ccccc2C(=O)c2c1ccc1nc(SCC(=O)N3CCOCC3)[nH]c21 87
O=C1c2ccccc2C(=O)c2c1ccc1nc(SC(=O)N3CCOCC3)[nH]c21 87
Cc1cc(C(=O)Sc2nc3ccc4c(c3[nH]2)C(=O)c2ccccc2C4=O)c(C)o1 100
CN(C)CCCSc1nc2ccc3c(c2[nH]1)C(=O)c1ccccc1C3=O 86
O=C1c2ccccc2C(=O)c2c1ccc1nc(SCC(=O)N3CCCC3)[nH]c21 100
O=C1c2ccccc2C(=O)c2c1ccc1nc(SCCCCCCCl)[nH]c21 98
Cc1ccccc1CSc1nc2ccc3c(c2[nH]1)C(=O)c1ccccc1C3=O 83
O=C1c2ccccc2C(=O)c2c1ccc1nc(SCCN3CCCC3)[nH]c21 98
CCCN(CCC)C(=O)CSc1nc2ccc3c(c2[nH]1)C(=O)c1ccccc1C3=O 91

* * *

# Tested on: SF-295
# test.protocol: Cytotoxicity against human SF295 cells assessed as growth inhibition after 48 hrs by SRB assay
# Assay type: functional
# stated.conditions: SF-295, 48 h
attribute.measured: TGI (µM)

O=C1c2ccccc2C(=O)c2c1ccc1nc(SCCN3CCCC3)[nH]c21 29.4
CCCSc1nc2ccc3c(c2[nH]1)C(=O)c1ccccc1C3=O 60.2
CN(C)CCCSc1nc2ccc3c(c2[nH]1)C(=O)c1ccccc1C3=O 28.4
CCSc1nc2ccc3c(c2[nH]1)C(=O)c1ccccc1C3=O 47.4

* * *

# Tested on: SK-OV-3
# test.protocol: Cytotoxicity against human SKOV3 cells assessed as growth inhibition after 48 hrs by SRB assay
# Assay type: functional
attribute.measured: growth inhibition (GI)

O=C1c2ccccc2C(=O)c2c1ccc1nc(SCCN3CCCC3)[nH]c21 Dose-dependent effect
CCSc1nc2ccc3c(c2[nH]1)C(=O)c1ccccc1C3=O Dose-dependent effect
CCCSc1nc2ccc3c(c2[nH]1)C(=O)c1ccccc1C3=O Dose-dependent effect
CN(C)CCCSc1nc2ccc3c(c2[nH]1)C(=O)c1ccccc1C3=O Dose-dependent effect

* * *

# System: SF-539
# test.protocol: Cytotoxicity against human SF539 cells assessed as cell growth at 10 uM after 48 hrs by SRB assay
# Format: functional
# stated.conditions: SF-539, 48 h, read-out: Activity
Some compounds, each annotated with its measured growth at 10 µM.
attribute.measured: growth at 10 µM

CCSc1nc2ccc3c(c2[nH]1)C(=O)c1ccccc1C3=O 58.6%
CN(C)CCCSc1nc2ccc3c(c2[nH]1)C(=O)c1ccccc1C3=O 57.5%
CCCSc1nc2ccc3c(c2[nH]1)C(=O)c1ccccc1C3=O 24%
O=C1c2ccccc2C(=O)c2c1ccc1nc3n(c21)CCS3 74.1%
O=C1c2ccccc2C(=O)c2c1ccc1nc(SCCN3CCCC3)[nH]c21 62.2%
O=C1c2ccccc2C(=O)c2c1ccc1[nH]c(=S)[nH]c21 91.3%

* * *

# System: LOX IMVI
# test.protocol: Cytotoxicity against human LOXIMVI cells assessed as cell growth at 10 uM after 48 hrs by SRB assay
# Type: functional
# stated.conditions: read-out: Activity
attribute.measured: growth at 10 µM

CN(C)CCCSc1nc2ccc3c(c2[nH]1)C(=O)c1ccccc1C3=O 28.6%
O=C1c2ccccc2C(=O)c2c1ccc1nc(SCCN3CCCC3)[nH]c21 11.9%
O=C1c2ccccc2C(=O)c2c1ccc1[nH]c(=S)[nH]c21 84%
O=C1c2ccccc2C(=O)c2c1ccc1nc3n(c21)CCS3 65.9%
CCSc1nc2ccc3c(c2[nH]1)C(=O)c1ccccc1C3=O 36.7%
CCCSc1nc2ccc3c(c2[nH]1)C(=O)c1ccccc1C3=O 62.6%

* * *

# Test system: MDA-MB-435
# test.protocol: Cytotoxicity against human MDA-MB-435 cells assessed as growth inhibition after 48 hrs by SRB assay
# Format: functional
# stated.conditions: MDA-MB-435, 48 h
Recorded measurements of GI50, one per entry
attribute.measured: GI50 (µM)

CN(C)CCCSc1nc2ccc3c(c2[nH]1)C(=O)c1ccccc1C3=O 10.4
CCSc1nc2ccc3c(c2[nH]1)C(=O)c1ccccc1C3=O 76.5
O=C1c2ccccc2C(=O)c2c1ccc1nc(SCCN3CCCC3)[nH]c21 4.18

* * *

# Tested on: NCI-H226
# test.protocol: Cytotoxicity against human NCI-H226 cells assessed as growth inhibition after 48 hrs by SRB assay
# Assay type: functional
# stated.conditions: NCI-H226, 48 h
attribute.measured: TGI (µM)

O=C1c2ccccc2C(=O)c2c1ccc1nc(SCCN3CCCC3)[nH]c21 36.6
CN(C)CCCSc1nc2ccc3c(c2[nH]1)C(=O)c1ccccc1C3=O 22.1
